Provide the recorded self-splicing fitness (ln) for the entries that follow.
experiment: self-splicing fitness, log relative to wild type (ln ratio); higher = more splicing; Tetrahymena group I intron in knt gene, E. coli kanamycin selection, DiMSum; sequences stand for … in CUCUCU…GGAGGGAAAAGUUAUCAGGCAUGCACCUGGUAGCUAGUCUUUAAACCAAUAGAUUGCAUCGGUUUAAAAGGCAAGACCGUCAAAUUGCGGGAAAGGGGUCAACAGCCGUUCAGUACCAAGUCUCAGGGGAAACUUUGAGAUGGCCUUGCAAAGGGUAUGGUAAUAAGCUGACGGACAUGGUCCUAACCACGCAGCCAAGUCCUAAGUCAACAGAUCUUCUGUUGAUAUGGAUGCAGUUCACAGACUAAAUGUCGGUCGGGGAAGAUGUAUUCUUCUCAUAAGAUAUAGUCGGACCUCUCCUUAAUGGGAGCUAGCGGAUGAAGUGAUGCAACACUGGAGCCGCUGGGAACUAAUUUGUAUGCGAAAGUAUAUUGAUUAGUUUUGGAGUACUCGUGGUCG; settings: 37 °C;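 further: selection with 25 µg/mL kanamycin versus none on LB agar overnight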
Just the number.

Quick one: self-splicing fitness (ln) of CCUGAGCAAUAUUACGCCGG ?
-1.71

Likewise for GGAGAGCAAUAUUACGUUUU ?
-1.15

Another sequence to check: GUGAAGCAAUAUUACGUGAA
-0.504

Field entry: UGACAGCAAUAUUACGCCAC
-1.43

Record: CAAGAGCAAUAUUACGGCGU
-1.92

Cool, now CGUCAGCAAUAUUACGGGCG
-2.8

Same read-out for UCAGAGCAAUAUUACGAUCA ?
-2.6

AUGUAGCAAUAUUACGCUAG ?
-0.5

UCUGAGCAAUAUUACGGCUA ?
-2.58

Now consider CCCAAGCAAUAUUACGAAAC and answer again.
-2.04

Next entry: GAAUAGCAAUAUUACGGUUU
-1.11

Please answer likewise for UCGCAGCAAUAUUACGGAGC
-1.89

Moving on to the next sequence: ACUGAGCAAUAUUACGUAUA
-1.97

Another sequence to check: UACGAGCAAUAUUACGAGAG
-2.8

Same read-out for GGACAGCAAUAUUACGCAUG ?
-0.235

Param item: UUGAAGCAAUAUUACGGCAC
-0.814

---

test: self-splicing fitness, log relative to wild type (ln ratio); higher = more splicing; Tetrahymena group I intron in knt gene, E. coli kanamycin selection, DiMSum; sequences stand for … in CUCUCU…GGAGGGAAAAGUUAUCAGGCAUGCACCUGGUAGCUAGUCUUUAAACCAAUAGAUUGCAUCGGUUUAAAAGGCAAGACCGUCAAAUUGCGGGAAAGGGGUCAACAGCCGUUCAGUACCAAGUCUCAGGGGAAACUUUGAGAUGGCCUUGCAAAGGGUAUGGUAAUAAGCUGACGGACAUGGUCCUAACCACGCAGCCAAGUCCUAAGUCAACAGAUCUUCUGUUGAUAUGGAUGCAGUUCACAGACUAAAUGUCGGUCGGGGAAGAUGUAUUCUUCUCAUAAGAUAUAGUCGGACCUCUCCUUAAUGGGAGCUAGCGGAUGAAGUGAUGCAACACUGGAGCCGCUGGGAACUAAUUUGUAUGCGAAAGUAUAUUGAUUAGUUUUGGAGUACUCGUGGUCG; settings: 37 °C
I'd appreciate it if you could supply self-splicing fitness (ln) values for the items below.
Keep the answer to the number alone.

Give its self-splicing fitness (ln) value. Item: GUAGAGCAAUAUUACGCGGG
-1.43

Entry GGGUAGCAAUAUUACGGCAA please
-0.33

And UAGGAGCAAUAUUACGUUGU ?
-2.35

Next sequence up: AAAGAGCAAUAUUACGGGGC
-2.79

Repeat with GAAGAGCAAUAUUACGUAAU
-1.22

Also check CCCUAGCAAUAUUACGUCGG
-2.57

Please answer likewise for GGGAAGCAAUAUUACGCAGA
-1.65

Same question for AGGCAGCAAUAUUACGUGGG please.
-2.97

Please answer likewise for AUAUAGCAAUAUUACGUCCA
-0.0483

Another sequence to check: CGACAGCAAUAUUACGCAUA
-2.33

Another sequence: UGGCAGCAAUAUUACGAGCA
-0.218

Would you mind doing UCAAAGCAAUAUUACGUAGC as well?
-2.52

Follow-up entry: GCGCAGCAAUAUUACGCGGG
-1.37

Please do the same for GAUCAGCAAUAUUACGAGCU as well.
-0.233

Note, next up: AUGAAGCAAUAUUACGCUAC
-1.86

Subsequent entry: CAGAAGCAAUAUUACGGCUG
-2.49

Repeat for the following sequence: GUAGAGCAAUAUUACGACAA
-0.0812

Now give it for CAGCAGCAAUAUUACGAUUA too.
-1

Same thing, different sequence: GUGUAGCAAUAUUACGGCGC
-0.968

Try the sequence CACUAGCAAUAUUACGUCCC
-2.38

Thanks! And CUCUAGCAAUAUUACGUGCG ?
-3.7

Entry to check: GUUGAGCAAUAUUACGCGUG
-2.66

How about UACGAGCAAUAUUACGGGUG ?
-0.725

And then ACAUAGCAAUAUUACGCCCU , what is it?
-0.134

Another sequence to check: UAUCAGCAAUAUUACGUAGC
-1.42

Next entry: AUAGAGCAAUAUUACGCGGC
-1.78

And ACACAGCAAUAUUACGAGAA ?
-2.54

Then UGAUAGCAAUAUUACGCAUU ?
-2.11

Further, for UGUAAGCAAUAUUACGACGG ?
-0.11

Try this sequence too: GAGUAGCAAUAUUACGUCUA
-0.00603

Would you kindly repeat that for GCCCAGCAAUAUUACGCCAU ?
-3.35

Also check CCGUAGCAAUAUUACGGGGA
-3.11

Same for AGCAAGCAAUAUUACGUUUG
-2.76

Then AUGGAGCAAUAUUACGCAGC ?
-2.54

Do the same for CAUCAGCAAUAUUACGUUGU please
-2.92

Another sequence: GGACAGCAAUAUUACGAGCC
-2.56

How about this sequence: AGGUAGCAAUAUUACGUAAA
-1.39

Can you check GGAUAGCAAUAUUACGCACG next?
-0.963

Check GAAAAGCAAUAUUACGCUCA too.
0.0911

Another sequence: GAGAAGCAAUAUUACGUUAG
-2.08

Request: UGCAAGCAAUAUUACGUGGC
-1.68

Same question, UAGAAGCAAUAUUACGGCAG this time
0.24

And then AGUGAGCAAUAUUACGAUCA , what is it?
-0.675

Next up: GCUUAGCAAUAUUACGCGUG
-1.64

Also CCCUAGCAAUAUUACGUCUG , if possible.
-3.17

What about this sequence? UGUAAGCAAUAUUACGUCAU
-1.28

And what about the sequence UCUGAGCAAUAUUACGCGGC ?
-3.58

Then this sequence: GUCCAGCAAUAUUACGUCUG
-2.47

What do you get for UCAUAGCAAUAUUACGUGUG ?
-1.84

Param item: GUUUAGCAAUAUUACGCACC
-0.522

Another sequence: CGCCAGCAAUAUUACGCGCC
-1.15

Now give it for CCCGAGCAAUAUUACGCUGG too.
-2.68

// next record CCGAAGCAAUAUUACGAGGU
-2.9

Same lookup for GCGAAGCAAUAUUACGUUUU , please.
-2.5

Same read-out for AUGUAGCAAUAUUACGCGUC ?
-2.32

Also GCUUAGCAAUAUUACGUUCG ?
-0.972

Would you mind doing GGAAAGCAAUAUUACGACAU as well?
-0.0162

Also need GAUUAGCAAUAUUACGGACG , thanks.
0.241

And for CUGCAGCAAUAUUACGGCGC ?
-2.75

Another: GCCAAGCAAUAUUACGCGCU
-0.352

For UUCAAGCAAUAUUACGAUGG then?
-1.95

Field entry: GGCGAGCAAUAUUACGCACU
-1.07

Please give the result for GAGUAGCAAUAUUACGGUUA too.
-0.497

Here is the next sequence: AUUCAGCAAUAUUACGAGGA
-1.63

Again, but for GGCAAGCAAUAUUACGAGCC
-1.52

Moving on to CUACAGCAAUAUUACGAAGC
-2.85

Ok, now UUACAGCAAUAUUACGCCAA
-1.01

---

assay: self-splicing fitness, log relative to wild type (ln ratio); higher = more splicing; Tetrahymena group I intron in knt gene, E. coli kanamycin selection, DiMSum; sequences stand for … in CUCUCU…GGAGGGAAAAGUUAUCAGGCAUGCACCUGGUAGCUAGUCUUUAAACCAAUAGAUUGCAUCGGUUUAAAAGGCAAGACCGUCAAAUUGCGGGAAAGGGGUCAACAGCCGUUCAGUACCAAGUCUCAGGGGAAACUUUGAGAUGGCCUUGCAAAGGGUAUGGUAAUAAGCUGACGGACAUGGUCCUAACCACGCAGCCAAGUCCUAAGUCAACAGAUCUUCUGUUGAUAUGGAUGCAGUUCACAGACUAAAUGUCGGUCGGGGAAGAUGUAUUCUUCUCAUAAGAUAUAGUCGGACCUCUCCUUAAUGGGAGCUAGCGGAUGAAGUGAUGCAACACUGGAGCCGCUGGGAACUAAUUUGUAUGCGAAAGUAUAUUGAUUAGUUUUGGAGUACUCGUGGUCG; conditions: 37 °C
Field: self-splicing fitness (ln). Provide a value for each of the sequences that follow.
Output spec: single numeric token, no unit.

Entry UCUUAGCAAUAUUACGCCGU has what self-splicing fitness (ln)?
-0.32

Field entry: UCGCAGCAAUAUUACGCUGC
-0.264

# repeat for GUCCAGCAAUAUUACGCUUA
-0.314

Now give it for UCUUAGCAAUAUUACGUGCU too.
-2.37

Now give it for CCUGAGCAAUAUUACGUUAA too.
-2.52

Okay, and GCUCAGCAAUAUUACGAACA ?
-0.676

Note, next up: UGUUAGCAAUAUUACGCGAU
-1.9

What do you get for GUUGAGCAAUAUUACGGAGA ?
-1.8

Lookup CCAGAGCAAUAUUACGCUCG
-1.95

Would you mind doing AUGCAGCAAUAUUACGAUAU as well?
0.0687

Same question, UGCAAGCAAUAUUACGCAUG this time
-2.32

Quick one: AUAAAGCAAUAUUACGAUGA
0.153

Now consider GACCAGCAAUAUUACGUUGG .
-2.53

Then what about the sequence UAUUAGCAAUAUUACGUCGU ?
-3.02

Try the sequence GAGCAGCAAUAUUACGGGUC
-1.91

Then this sequence: UUCCAGCAAUAUUACGCGCG
-0.688
